For each of the compounds below, state its activation.
Experiment: activators of APP 5'UTR luciferase reporter, primary screen, SH-SY5Y cells (AID 1276)
Details: SH-SY5Y APP 5'UTR luciferase reporter, luminescence; at 2 µM; stronger effect = higher value; zero percent = DMSO vehicle wells
About 2,000 (1.1%) of roughly 190,000 compounds were called active. Shown is part of a subset that was picked to be rich in actives.
One number for each entry, in %.

Please review the following examples before continuing.
The recorded activation for O=C(CC1SCCNC1=O)Nc1ccc(Cl)c(Cl)c1 (stereo unspecified) is -7.34

For this compound ( CCN(CC)CCNC(=O)c1sc2ncn(CC(=O)Nc3ccc(C)c(Cl)c3)c(=O)c2c1C ), measured activation is 11.4

Sample CCOc1cccc(/C=C/c2ccc3ccccc3n2)c1OC(C)=O ; activation observed: 216

activation reading for NC1=NN(c2cccc(C(=O)O)c2)C(=O)C1 : 135

Lab book: activation of CN1CCN(c2nc(Nc3ccc(O)cc3)nc3ccccc23)CC1 noted as 18.9

Entry O=C(NNC(=O)c1ccc(Cl)cc1Cl)c1cccs1 ; activation = 59.2

For reference, reported activation for COc1cc([N+](=O)[O-])ccc1NC(=O)CN1CCCC1 stands at -0.5

In plain terms, Cc1cc(C)n(Cc2cnc(N3CCOCC3)s2)n1 has a documented activation of 22.6

Hey, can you go through the list below and give me activation for every item?
1. Cc1ccc(NC(=O)COC(=O)CCc2nc3ccccc3n2-c2ccccc2)c(C)c1
2. COc1cccc(/C=C/c2ccc3ccccc3n2)c1OC(C)=O
3. COc1ccc(-c2nc(-c3ccccc3)no2)c(OC)c1

Reply:
11.8
131
139

---

Exercise: state measured activation for each of the compounds provided.
Experiment: activators of APP 5'UTR luciferase reporter, primary screen, SH-SY5Y cells (AID 1276)
Conditions: SH-SY5Y APP 5'UTR luciferase reporter, luminescence; at 2 µM; stronger effect = higher value; zero percent = DMSO vehicle wells
Screen size: about 190,000 compounds; about 2,000 (1.1%) were called active. Many of the other results were omitted from the sample, so actives are more common in it than they were.
Answers are plain numbers, in %.

# count of solved cases: 5
Measured activation, C/C(=N/NC(=S)Nc1ccccc1)c1ccc2c(c1)OCO2 : 11.9

For reference, reported activation for Cc1cc(C)c(NC(=O)c2oc3ccccc3c2COc2ccccc2)c(C)c1 stands at -0.13

Reported activation of O=C(Nc1ccc(N2CCN(C(=O)C3CC3)CC2)cc1)c1cccs1 : -0.31

Short answer for Cc1ccc(NC(=O)CSc2nc(CSc3ccc(C)cc3)cc(=O)[nH]2)cc1 : activation was 7.62

activation measured on Cc1ccc(NC(=O)CCC(=O)N/N=C/c2ccco2)c(C)c1 = 8.01

Here is the next item to consider.
activation reading for Cc1ccc(C(=O)N2CCN(S(=O)(=O)N3CCOCC3)CC2)cc1 : 0.65

---

Assay: activators of APP 5'UTR luciferase reporter, primary screen, SH-SY5Y cells (AID 1276)
Settings: SH-SY5Y APP 5'UTR luciferase reporter, luminescence; at 2 µM; stronger effect = higher value; zero percent = DMSO vehicle wells
Out of some 190,000 compounds screened, about 2,000 (1.1%) were called active. Shown is part of a subset that was picked to be rich in actives.
property-label: activation (%)
Answers are plain numbers, in %.

Record excerpt, results attached:
The recorded activation for O=C(Nc1ccc(F)cc1)N1CCCC(c2nc3c(nnn3Cc3ccccc3Cl)c(=O)[nH]2)C1 (stereo not given) is -4.96

The value of activation measured for the compound O=C(C1CCCO1)N(c1ccc(F)cc1)C1C=CS(=O)(=O)C1 (stereo not given) turned out to be 5.93

activation reading for CCCCN(C(=O)COc1ccc(NC(C)=O)cc1)C1CCS(=O)(=O)C1 (stereo not given) : 6.89

Sample CC(C)(C)CN1CCNC(=O)C1CC(=O)NC1Cc2ccccc2C1 (stereo not given) ; activation observed: -10.9

Next:
activation reported for this compound COc1cc([N+](=O)[O-])ccc1NC(=S)N1CCN(c2ccccn2)CC1 : -4.93

Origin of the recorded values: PubChem BioAssay AID1276
